test-target: human plasmin (Homo sapiens, UniProt P00747)
Construct: the enzyme was human plasmin (Kabi); purchased Kabi
Sequence (P00747 581-810 limits assumed): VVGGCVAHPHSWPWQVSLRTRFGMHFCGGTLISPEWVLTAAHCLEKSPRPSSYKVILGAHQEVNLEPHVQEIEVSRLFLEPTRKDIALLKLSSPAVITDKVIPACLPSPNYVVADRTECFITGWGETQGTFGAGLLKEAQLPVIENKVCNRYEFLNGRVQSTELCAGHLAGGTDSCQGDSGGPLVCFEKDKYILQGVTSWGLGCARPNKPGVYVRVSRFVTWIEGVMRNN
Sequence (P00747 97-580 partner limits assumed): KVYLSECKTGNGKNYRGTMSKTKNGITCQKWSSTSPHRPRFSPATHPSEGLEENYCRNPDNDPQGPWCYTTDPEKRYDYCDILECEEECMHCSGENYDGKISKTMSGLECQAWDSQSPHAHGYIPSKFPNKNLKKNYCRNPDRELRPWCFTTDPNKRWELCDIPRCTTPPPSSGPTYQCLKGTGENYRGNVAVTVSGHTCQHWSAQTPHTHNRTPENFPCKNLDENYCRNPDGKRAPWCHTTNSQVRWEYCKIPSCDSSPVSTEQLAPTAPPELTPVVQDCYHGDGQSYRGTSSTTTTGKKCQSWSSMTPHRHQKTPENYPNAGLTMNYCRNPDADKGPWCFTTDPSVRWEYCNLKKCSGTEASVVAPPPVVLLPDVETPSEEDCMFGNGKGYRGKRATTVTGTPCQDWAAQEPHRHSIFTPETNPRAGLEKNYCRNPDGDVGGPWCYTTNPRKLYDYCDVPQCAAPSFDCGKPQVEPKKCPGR
protocol: Plasmin chromogenic assay
Type: biochemical
measurement-context: Table 2
endpoint-name: Ki

- substance: "N-alpha-tosyl-Gly-p-amidinophenylalanine methyl ester [TENSTOP, reference compound]"
  reported-result: "> 200 µM"

---

protocol: Ex vivo dilute prothrombin time assay after iv administration to rabbits
measurement-context: rabbit, in vivo, time at which approximately 50% of the initial anticoagulant activity remains in plasma, read-out: T1/2 Rabbit ex vivo
Structures can show the parent of a compound that is named as a salt. Starred links: 1 amine or outer side, 2 acyl side, 3 side chain; linkers in the order of their positions; H or OH if unused. Non-standard residues stand in square brackets, D forms with d. Residues, ends and D or L forms follow the SMILES beside them. *: point of attachment. X1 = CC(C)CN([C@@H](Cc1ccc(O)cc1)C(=O)[*:2])[*:1]; 2Nal = N[C@@H](Cc1ccc2ccccc2c1)C(=O)O; Chg = N[C@H](C(=O)O)C1CCCCC1; Tfa = O=C(C(F)(F)F)*

- molecule: "CC(=O)N[C@@H](Cc1ccc(O)cc1)C(=O)N[C@H](C(=O)N[C@@H](CCCNC(=N)N)C(=O)N[C@@H](CC(C)C)C(=O)N1CCC[C@H]1C(N)=O)C1CCCCC1 [Ac—Y—Chg—R—L—P—NH2, Ac-Tyr-Chg-Arg-Leu-Pro-NH2] (Ac-Y[Chg]RLP-NH2)"
  half-life (min): 5
- molecule: "CC(=O)N[C@@H](Cc1ccc(O)cc1)C(=O)N[C@H](C(=O)N[C@@H](CCCNC(=N)N)C(N)=O)C1CCCCC1 [Ac—Y—Chg—R—NH2] (Ac-Tyr-[Chg]-Arg-NH2)"
  half-life (min): 5
- molecule: "CC(=O)N[C@@H](Cc1ccc2ccccc2c1)C(=O)N[C@H](C(=O)N[C@@H](CCCNC(=N)N)C(=O)N[C@@H](CC(C)C)C(=O)N1CCC[C@H]1C(N)=O)C1CCCCC1 [Ac—Nal(2)—Chg—R—L—P—NH2, Ac-Nal(2)-Chg-Arg-Leu-Pro-NH2] (Ac-[2Nal][Chg]RLP-NH2)"
  half-life (min): 5
- molecule: "CC(C)C[C@H](NC(=O)[C@H](CCCNC(=N)N)NC(=O)[C@@H](NC(=O)[C@H](Cc1ccc(O)cc1)N(CC(C)C)C(=O)C(F)(F)F)C1CCCCC1)C(=O)N1CCC[C@H]1C(N)=O [Tfa—(iBu)Y—Chg—R—L—P—NH2, Tfa-(iBu)Tyr-Chg-Arg-Leu-Pro-NH2] (Tfa-[X1][Chg]RLP-NH2)"
  half-life (min): 10

Measured values drawn from patent US6759384B1 for this set.
